- TARGET_SYSTEM: human muscarinic acetylcholine M3 receptor (M3-ACh) (Homo sapiens, UniProt P20309)
- Construct: expressed in transfected cells; host or cells: CHO-K1 (Chinese Hamster Ovary) cell membranes
- Sequence (P20309 whole entry): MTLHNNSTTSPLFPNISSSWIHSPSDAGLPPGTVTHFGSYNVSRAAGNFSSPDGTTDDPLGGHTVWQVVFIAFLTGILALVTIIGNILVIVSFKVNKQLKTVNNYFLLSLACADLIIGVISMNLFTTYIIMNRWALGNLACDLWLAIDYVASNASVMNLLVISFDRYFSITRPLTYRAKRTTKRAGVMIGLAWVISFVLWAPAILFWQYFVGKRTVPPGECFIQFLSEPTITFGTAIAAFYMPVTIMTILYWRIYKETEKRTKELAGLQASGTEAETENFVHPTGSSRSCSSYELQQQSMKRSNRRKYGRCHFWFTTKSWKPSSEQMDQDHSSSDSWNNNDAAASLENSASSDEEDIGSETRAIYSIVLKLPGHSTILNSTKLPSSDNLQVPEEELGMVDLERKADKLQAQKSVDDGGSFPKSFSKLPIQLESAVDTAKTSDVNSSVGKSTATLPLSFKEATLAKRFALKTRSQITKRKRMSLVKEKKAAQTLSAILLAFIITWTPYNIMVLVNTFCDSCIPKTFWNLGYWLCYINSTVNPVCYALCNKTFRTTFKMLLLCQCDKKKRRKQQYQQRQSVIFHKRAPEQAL
- PROCEDURE_SUMMARY: biochemical
- Assay type: binding
- MEASUREMENT_SETUP: pIC50 (M3 Binding IC50 classes)
TEST_READOUT: IC50

Consider the worked cases shown below.
[[record]]
molecule = "CC(C(=O)O[C@H]1C[N+]2(CC(=O)Nc3cccc(F)c3)CCC1CC2)(c1cccs1)N1CCSCC1 (single isomer, unassigned) [Example 53]"
experimental_value = "< 2 nM"

[[record]]
molecule = "CC(C(=O)O[C@H]1C[N+]2(CCc3ccccc3)CCC1CC2)(c1ccccc1)N1CCCCCC1 (single isomer, unassigned) [Example 93]"
experimental_value = "< 2 nM"


In the following, a different molecule is considered.
What the record says about CC(C(=O)O[C@H]1C[N+]2(CCc3cccc(F)c3)CCC1CC2)(c1cccs1)N1CCSCC1 (single isomer, unassigned) [Example 51] : IC50 is < 2 nM
